The origin of these recorded values is patent US20050032873A1.

Measured melting point, listed per entry.
Counter-ions that a name gives are not always drawn.

Query block: Quick one: melting point of COc1cccc2c1C[C@@H](N(CCCc1c[nH]c3ccc(F)cc13)C1CCC1)CO2 (as salt: hydrochloride) ?
Result block: 115 °C (dec.)

Query block: Quick one: melting point of NC(=O)c1ccc(F)c2c1C[C@@H](N(CCCCc1c[nH]c3ccc(F)cc13)C1CCC1)CO2 (as salt: hydrochloride) [Compound 83a] ?
Result block: 128 °C (dec.)

Query block: Quick one: melting point of CNC(=O)c1ccc(F)c2c1CC(N(CCCCc1c[nH]c3ccc(F)cc13)C1CCC1)CO2 (stereo not drawn) (as salt: hydrochloride) ?
Result block: 123 °C (dec.)

Query block: Quick one: melting point of NC(=O)c1cccc2c1CC(NCCCc1c[nH]c3ccc(F)cc13)CO2 (stereo not drawn) ?
Result block: 153 to 155 °C

Query block: Quick one: melting point of COC(=O)c1ccc(F)c2c1C[C@H](N(CCCCc1c[nH]c3ccc(F)cc13)C1CCC1)CO2 (as salt: hydrochloride) [Compound 58a] ?
Result block: 209 °C (dec.)

Query block: Quick one: melting point of NC(=O)c1ccc(F)c2c1OCC(N(CCCc1c[nH]c3ccc(F)cc13)C1CCC1)C2 (stereo not drawn) (as salt: hydrochloride) ?
Result block: 132 °C (dec.)

Query block: Quick one: melting point of NC(=O)c1ccc(F)c2c1CC(N(CCC(=O)c1c[nH]c3ccc(F)cc13)C1CCC1)CO2 (stereo not drawn) (as salt: hydrochloride) ?
Result block: 139 °C (dec.)

Query block: Quick one: melting point of CCCN(CCc1coc2c(OC)cccc12)C1COc2c(F)ccc(C(N)=O)c2C1 (stereo not drawn) (as salt: hydrochloride) ?
Result block: 125 to 132 °C

Query block: Quick one: melting point of COc1cccc2c(CCCCN(CC3CC3)C3COc4c(F)ccc(C(N)=O)c4C3)coc12 (stereo not drawn) (as salt: hydrochloride) ?
Result block: 114 to 120 °C
